biological target: UniProt P20309; test: Displacement of [3H]-NMS from human muscarinic M3 receptor expressed in CHO-K1 cells by scintillation counting method; type: cell-based
Sequence (P20309 whole entry): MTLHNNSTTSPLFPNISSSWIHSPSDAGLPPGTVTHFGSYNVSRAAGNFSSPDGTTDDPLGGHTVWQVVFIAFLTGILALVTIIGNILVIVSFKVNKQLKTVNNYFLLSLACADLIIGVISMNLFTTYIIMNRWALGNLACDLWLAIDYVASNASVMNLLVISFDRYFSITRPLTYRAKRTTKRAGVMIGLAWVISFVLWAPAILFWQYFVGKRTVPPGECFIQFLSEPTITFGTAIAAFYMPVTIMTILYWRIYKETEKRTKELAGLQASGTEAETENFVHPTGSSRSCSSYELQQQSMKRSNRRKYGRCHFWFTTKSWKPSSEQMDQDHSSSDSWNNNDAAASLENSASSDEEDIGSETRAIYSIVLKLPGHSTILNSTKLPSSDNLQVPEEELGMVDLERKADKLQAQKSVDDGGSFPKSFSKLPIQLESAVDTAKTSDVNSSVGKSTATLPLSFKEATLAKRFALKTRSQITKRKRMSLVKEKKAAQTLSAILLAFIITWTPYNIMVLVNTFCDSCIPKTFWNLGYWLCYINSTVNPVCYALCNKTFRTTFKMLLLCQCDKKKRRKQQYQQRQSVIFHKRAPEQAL
Observable: pKi
Reminder that pKi means the negative base-10 logarithm of the concentration expressed in mol/L.

Problem: Can you look up pKi on UniProt P20309 for CCCC(C)(C)C(=O)N(CC)CCCC1CCN(CC(=O)N2c3ccc(Cl)cc3C(=O)Nc3cccnc32)CC1 ?
Solution: 6.11

---

Molecular target: Muscarinic acetylcholine receptor M2 (Homo sapiens)
Sequence (P08172 whole entry): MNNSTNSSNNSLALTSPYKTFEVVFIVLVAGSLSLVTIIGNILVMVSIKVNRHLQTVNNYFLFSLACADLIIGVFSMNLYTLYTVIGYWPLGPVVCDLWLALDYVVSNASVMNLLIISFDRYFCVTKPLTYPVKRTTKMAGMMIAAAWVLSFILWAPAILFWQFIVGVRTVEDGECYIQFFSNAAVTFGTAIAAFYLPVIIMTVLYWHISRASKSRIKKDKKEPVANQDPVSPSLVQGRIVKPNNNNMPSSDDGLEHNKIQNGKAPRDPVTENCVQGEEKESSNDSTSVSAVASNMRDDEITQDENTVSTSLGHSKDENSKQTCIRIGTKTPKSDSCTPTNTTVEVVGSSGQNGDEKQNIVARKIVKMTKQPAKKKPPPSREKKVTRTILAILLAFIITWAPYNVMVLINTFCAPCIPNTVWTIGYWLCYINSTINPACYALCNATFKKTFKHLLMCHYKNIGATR
Experiment: Displacement of [3H]-QNB from human muscarinic M2 receptor expressed in stable CHO-K1 cells incubated for 120 mins by radioligand competition binding assay
Format: cell-based
Observable: pKi
Reminder that pKi means the negative base-10 logarithm of the concentration expressed in mol/L.

Problem: Query: pKi; subject: Cc1ccccc1C(=O)N1CCC(N2CCC(Cc3ccc(S(=O)(=O)c4cccc(Cl)c4)cc3)CC2)CC1
Solution: 8.57

---

target: Muscarinic acetylcholine receptor M2 and M5 (Homo sapiens) (UniProt P08172+P08912); test: Selectivity ratio of Ki for human muscarinic M5 receptor expressed in CHO-K9 cells to Ki for human muscarinic M2 receptor expressed in CHO-K9 cells; assay type: cell-based
Observable: Ratio Ki
Give a plain numeric answer without units written out.

Structure Notation | Ratio Ki
CC(=O)N[C@@H](CCCNC(=N)N)C(=O)N[C@@H](CCCNC(=N)N)C(=O)NCCCCC1CCN(CC(=O)N2c3ccccc3NC(=O)c3ccccc32)CC1 | 97
CC(=O)N[C@@H](Cc1ccc(O)cc1)C(=O)N[C@@H](CCCCN)C(=O)NCCN1CCN(CCCCC2CCN(CC(=O)N3c4ccccc4NC(=O)c4ccccc43)CC2)CC1 | 1900

Now examine the next entry.
Problem: Query: Ratio Ki; subject: CC(=O)N[C@@H](Cc1c[nH]c2ccccc12)C(=O)N[C@@H](Cc1ccc(O)cc1)C(=O)NCCN1CCN(CCCCC2CCN(CC(=O)N3c4ccccc4NC(=O)c4ccccc43)CC2)CC1
Solution: 220

---

Measured Ratio Ki, listed per entry for reference.
target: Muscarinic acetylcholine receptors; M1 & M2 (Homo sapiens) (UniProt P11229+P08172); assay: Selectivity ratio of Ki for human muscarinic M1 receptor expressed in CHO-K9 cells to Ki for human muscarinic M2 receptor expressed in CHO-K9 cells; type: cell-based
Give a plain numeric answer without units written out.

Structure Notation | Target Entity | Result
CC(=O)N[C@@H](Cc1c[nH]c2ccccc12)C(=O)N[C@@H](Cc1ccc(O)cc1)C(=O)NCCCCC1CCN(CC(=O)N2c3ccccc3NC(=O)c3ccccc32)CC1 | Muscarinic acetylcholine receptors; M1 & M2 (Homo sapiens) (UniProt P11229+P08172) | 5

Problem: Query: Ratio Ki; subject: CC(=O)N[C@@H](Cc1ccc(O)cc1)C(=O)N[C@@H](CCCCN)C(=O)NCCCCC1CCN(CC(=O)N2c3ccccc3NC(=O)c3ccccc32)CC1
Solution: 1.8

Problem: Query: Ratio Ki; subject: CC(=O)N[C@@H](CCC(N)=O)C(=O)N[C@@H](C)C(=O)N[C@@H](CC(C)C)C(=O)NCCN1CCN(CCCCC2CCN(CC(=O)N3c4ccccc4NC(=O)c4ccccc43)CC2)CC1
Solution: 8.4

Problem: Query: Ratio Ki; subject: CC(=O)N[C@@H](Cc1c[nH]c2ccccc12)C(=O)N[C@@H](C)C(=O)N[C@@H](Cc1ccc(O)cc1)C(=O)NCCCCC1CCN(CC(=O)N2c3ccccc3NC(=O)c3ccccc32)CC1
Solution: 4.7

Problem: Query: Ratio Ki; subject: CC(=O)N[C@@H](CCCCN)C(=O)N[C@@H](C)C(=O)N[C@@H](Cc1ccc(O)cc1)C(=O)NCCN1CCN(CCCCC2CCN(CC(=O)N3c4ccccc4NC(=O)c4ccccc43)CC2)CC1
Solution: 8.3

Problem: Query: Ratio Ki; subject: CC(=O)N[C@@H](CCC(N)=O)C(=O)N[C@@H](CC(C)C)C(=O)NCCCCC1CCN(CC(=O)N2c3ccccc3NC(=O)c3ccccc32)CC1
Solution: 3.4

Problem: Query: Ratio Ki; subject: CC(=O)N[C@@H](C)C(=O)N[C@@H](C)C(=O)NCCCCC1CCN(CC(=O)N2c3ccccc3NC(=O)c3ccccc32)CC1
Solution: 14

---

target: Muscarinic acetylcholine receptor M4 (Homo sapiens); assay: Displacement of [3H]-NMS from human muscarinic M4 receptor expressed in CHO-K9 cells after 3 hrs by microbeta2 scintillation counting method; assay type: cell-based
Observable: Ki
Please answer using the number first and the unit second.

Structure Notation | Target Entity | Ki
CC(=O)N[C@@H](CCCNC(=N)N)C(=O)N[C@@H](CCCCN)C(=O)NCC(=O)NCCCCC1CCN(CC(=O)N2c3ccccc3NC(=O)c3ccccc32)CC1 | Muscarinic acetylcholine receptor M4 (Homo sapiens) | 17.4 nM
CC(=O)N[C@@H](CCCCN)C(=O)N[C@@H](C)C(=O)N[C@@H](CCCNC(=N)N)C(=O)NCCN1CCN(CCCCC2CCN(CC(=O)N3c4ccccc4NC(=O)c4ccccc43)CC2)CC1 | Muscarinic acetylcholine receptor M4 (Homo sapiens) | 2.09 nM
CC(=O)N[C@@H](CCCCN)C(=O)N[C@@H](CCCNC(=N)N)C(=O)NCCN1CCN(CCCCC2CCN(CC(=O)N3c4ccccc4NC(=O)c4ccccc43)CC2)CC1 | Muscarinic acetylcholine receptor M4 (Homo sapiens) | 2.04 nM
CC(=O)N[C@@H](CCCCN)C(=O)N[C@@H](Cc1ccc(O)cc1)C(=O)NCCN1CCN(CCCCC2CCN(CC(=O)N3c4ccccc4NC(=O)c4ccccc43)CC2)CC1 | Muscarinic acetylcholine receptor M4 (Homo sapiens) | 1.12 nM

Now examine the next entry.
Problem: Query: Ki; subject: CC(=O)N[C@@H](CCC(N)=O)C(=O)N[C@@H](CC(C)C)C(=O)NCCN1CCN(CCCCC2CCN(CC(=O)N3c4ccccc4NC(=O)c4ccccc43)CC2)CC1
Solution: 1.2 nM

---

Measured Ki, listed per entry for reference.
target: UniProt P20309; assay: Displacement of [3H]-NMS from human muscarinic M3 receptor expressed in CHO-K9 cells after 3 hrs by microbeta2 scintillation counting method; assay type: cell-based
Write the value in nM as a bare number.

Consider the following illustrative entries.
Structure Notation | Target Entity | Ki [nM]
CC(=O)N[C@@H](CCCNC(=N)N)C(=O)N[C@@H](CCCNC(=N)N)C(=O)NCCCCC1CCN(CC(=O)N2c3ccccc3NC(=O)c3ccccc32)CC1 | UniProt P20309 | 955
CC(=O)N[C@@H](C)C(=O)N[C@@H](C)C(=O)NCCCCC1CCN(CC(=O)N2c3ccccc3NC(=O)c3ccccc32)CC1 | UniProt P20309 | 1380
CC(=O)N[C@@H](Cc1c[nH]c2ccccc12)C(=O)N[C@@H](Cc1ccc(O)cc1)C(=O)NCCN1CCN(CCCCC2CCN(CC(=O)N3c4ccccc4NC(=O)c4ccccc43)CC2)CC1 | UniProt P20309 | 13.5
CC(=O)N[C@@H](CCCCN)C(=O)N[C@@H](C)C(=O)N[C@@H](Cc1ccc(O)cc1)C(=O)NCCN1CCN(CCCCC2CCN(CC(=O)N3c4ccccc4NC(=O)c4ccccc43)CC2)CC1 | UniProt P20309 | 44.7
CC(=O)N[C@@H](CCCCN)C(=O)N[C@@H](C)C(=O)N[C@@H](CCCNC(=N)N)C(=O)NCCCCC1CCN(CC(=O)N2c3ccccc3NC(=O)c3ccccc32)CC1 | UniProt P20309 | 2690

Problem: Query: Ki; subject: CC(=O)N[C@@H](Cc1c[nH]c2ccccc12)C(=O)N[C@@H](C)C(=O)N[C@@H](Cc1ccc(O)cc1)C(=O)NCCCCC1CCN(CC(=O)N2c3ccccc3NC(=O)c3ccccc32)CC1
Solution: 1150

---

Measured pKi, listed per entry for reference.
Molecular target: Muscarinic acetylcholine receptor M4 (Homo sapiens)
Sequence (P08173 whole entry): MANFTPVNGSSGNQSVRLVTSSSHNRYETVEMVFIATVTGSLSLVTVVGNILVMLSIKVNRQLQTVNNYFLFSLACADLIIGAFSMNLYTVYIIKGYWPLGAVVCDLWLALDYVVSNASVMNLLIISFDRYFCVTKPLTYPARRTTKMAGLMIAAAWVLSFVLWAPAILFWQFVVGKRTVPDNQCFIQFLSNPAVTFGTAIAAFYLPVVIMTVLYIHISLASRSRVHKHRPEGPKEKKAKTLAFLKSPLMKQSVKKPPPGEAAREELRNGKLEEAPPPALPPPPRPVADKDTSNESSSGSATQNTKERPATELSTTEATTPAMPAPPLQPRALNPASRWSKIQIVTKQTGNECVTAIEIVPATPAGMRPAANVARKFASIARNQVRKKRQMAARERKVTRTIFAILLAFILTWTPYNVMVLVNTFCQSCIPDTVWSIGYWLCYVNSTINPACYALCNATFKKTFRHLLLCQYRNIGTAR
Assay: Displacement of [3H]-NMS from human muscarinic M4 receptor expressed in CHO-K9 cells after 3 hrs by microbeta2 scintillation counting method
Assay type: cell-based
Reminder that pKi means the negative base-10 logarithm of the concentration expressed in mol/L.

Consider the following illustrative entries.
Structure Notation | pKi
N=C(N)NCCC[C@H](N)C(=O)NCCCCC1CCN(CC(=O)N2c3ccccc3NC(=O)c3ccccc32)CC1 | 7.25
CC(=O)N[C@@H](Cc1ccc(O)cc1)C(=O)N[C@@H](CCCCN)C(=O)NCCN1CCN(CCCCC2CCN(CC(=O)N3c4ccccc4NC(=O)c4ccccc43)CC2)CC1 | 9.04
CC(=O)N[C@@H](CCCCN)C(=O)N[C@@H](CCCNC(=N)N)C(=O)NCC(=O)NCCCCC1CCN(CC(=O)N2c3ccccc3NC(=O)c3ccccc32)CC1 | 7.56
CN1CC=C(c2nsnc2OCCCN2CCN(CCCCC3CCN(CC(=O)N4c5ccccc5NC(=O)c5ccccc54)CC3)CC2)CC1 | 8.59

Problem: Query: pKi; subject: CC(=O)N[C@@H](Cc1ccc(O)cc1)C(=O)N[C@@H](C)C(=O)N[C@@H](CCCCN)C(=O)NCCCCC1CCN(CC(=O)N2c3ccccc3NC(=O)c3ccccc32)CC1
Solution: 7.24

Problem: Query: pKi; subject: CC(=O)N[C@@H](CCCCN)C(=O)N[C@@H](Cc1ccc(O)cc1)C(=O)NCCCCC1CCN(CC(=O)N2c3ccccc3NC(=O)c3ccccc32)CC1
Solution: 7.97

Problem: Query: pKi; subject: CC(=O)N[C@@H](CCC(N)=O)C(=O)N[C@@H](CC(C)C)C(=O)NCCCCC1CCN(CC(=O)N2c3ccccc3NC(=O)c3ccccc32)CC1
Solution: 5.97
